B1: H2-Kb / Ed40 (parent complex)
chain 1: GDSVTQTEGPVTVSESESLIINCTYSATSIAYPNLFWYVRYPGEGLQLLLKVITAGQKGSSRGFEATYNKETTSFHLQKASVQESDSAVYYCALGDGYTGNYKYVFGAGTRLKVIA
chain 2: DSGVVQSPRHIIKEKGGRSVLTCIPISGHSNVVWYQQTLGKELKFLIQHYEKVERDKGFLPSRFSVQQFDDYHSEMNMSALELEDSAMYFCASSGASAETLYFGSGTRLTVL
chain 3: not shown
chain 4: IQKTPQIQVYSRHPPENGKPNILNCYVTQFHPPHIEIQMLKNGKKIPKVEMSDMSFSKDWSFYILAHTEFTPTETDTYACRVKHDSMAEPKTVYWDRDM
chain 5: SIINFEKL

- Variants of: B1
- ASSAY OVERVIEW: % of reporter cells activated (NFAT-GFP), raw; note: test concentration or dose not given here
variants and their reported ratio to parent
Please reply with the value in numeric form only.

# annotated cases, reported ratio to parent shown
chain 5 E6N = 0.287
chain 5 I2T = 1.18

**Q:** Given the entry chain 5 F5P , report its measured ratio to parent.
**A:** 0.944

**Q:** For the variant shown here, chain 5 I3H , give the reported ratio to parent.
**A:** 0.67

**Q:** Need ratio to parent of chain 5 L8C , thanks.
**A:** 0.555
